Target: rat D1 receptor (Rattus norvegicus, UniProt P18901)
Construct: source of native rat D1 receptor protein; from tissue; host or cells: rat striatum (methods) / rat brain cortical membranes
Sequence (P18901 whole entry): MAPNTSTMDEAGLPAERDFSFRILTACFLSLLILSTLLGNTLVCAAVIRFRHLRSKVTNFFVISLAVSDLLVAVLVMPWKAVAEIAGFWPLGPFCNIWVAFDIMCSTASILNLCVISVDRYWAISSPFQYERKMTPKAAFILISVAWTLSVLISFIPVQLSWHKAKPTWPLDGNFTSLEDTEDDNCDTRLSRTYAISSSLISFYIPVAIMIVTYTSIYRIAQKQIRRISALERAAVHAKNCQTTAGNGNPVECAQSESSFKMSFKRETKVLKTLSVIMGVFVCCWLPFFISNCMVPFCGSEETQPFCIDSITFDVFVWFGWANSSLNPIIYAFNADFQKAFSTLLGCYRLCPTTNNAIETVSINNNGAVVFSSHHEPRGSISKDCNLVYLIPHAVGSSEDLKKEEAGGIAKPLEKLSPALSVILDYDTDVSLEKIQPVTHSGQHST
Test: Radioligand binding [3H]SCH23390, rat brain tissue
Settings: read-out: rD1 [3H]SCH23390 % inhibition ± SEM at 1 µM
This listing pairs compounds with measured inhibition at 1 µM.
assay-endpoint: inhibition at 1 µM (%)

{"compound": "Cn1c(=O)c2c(nc(NCCc3ccc(O)c(O)c3)n2CCOc2ccccc2)n(C)c1=O [Compound 11l]", "recorded-measurement": 3}
{"compound": "Cn1c(=O)c2c(nc3n2CCCN3CCc2ccc(O)c(O)c2)n(C)c1=O [Compound 20a]", "recorded-measurement": 15}
{"compound": "CCCCCn1c(NCCc2ccc(O)c(O)c2)nc2c1c(=O)n(C)c(=O)n2C [Compound 11h]", "recorded-measurement": 12}
{"compound": "CCC(C)n1c(NCCc2ccc(O)c(O)c2)nc2c1c(=O)n(C)c(=O)n2C (centres unmarked) [Compound 11g]", "recorded-measurement": 11}
{"compound": "Cn1c(=O)c2c(nc(NCCc3ccc(O)c(O)c3)n2CCc2ccccc2)n(C)c1=O [Compound 11k]", "recorded-measurement": 6}
{"compound": "Cn1c(=O)c2c(nc3n2CCCCN3CCc2ccc(O)c(O)c2)n(C)c1=O [Compound 20b]", "recorded-measurement": 15}
{"compound": "CCCCn1c(=O)c2c(nc3n2CCCN3CCc2ccc(O)c(O)c2)n(CCCC)c1=O [Compound 22]", "recorded-measurement": 11}
{"compound": "CCCn1c(NCCc2ccc(O)c(O)c2)nc2c1c(=O)n(C)c(=O)n2C [Compound 11c]", "recorded-measurement": 9}
{"compound": "CCCCn1c(NCCc2ccc(O)c(O)c2)nc2c1c(=O)n(C)c(=O)n2C [Compound 11e]", "recorded-measurement": 13}
{"compound": "CCCCCCn1c(NCCc2ccc(O)c(O)c2)nc2c1c(=O)n(C)c(=O)n2C [Compound 11i]", "recorded-measurement": 9}
{"compound": "CCCn1c(=O)c2c(nc3n2CCCN3CCc2ccc(O)c(O)c2)n(CCC)c1=O [Compound 21]", "recorded-measurement": 12}
{"compound": "CC(C)n1c(NCCc2ccc(O)c(O)c2)nc2c1c(=O)n(C)c(=O)n2C [Compound 11d]", "recorded-measurement": 15}
{"compound": "CC(C)Cn1c(NCCc2ccc(O)c(O)c2)nc2c1c(=O)n(C)c(=O)n2C [Compound 11f]", "recorded-measurement": 15}
{"compound": "CCn1c(NCCc2ccc(O)c(O)c2)nc2c1c(=O)n(C)c(=O)n2C [Compound 11b]", "recorded-measurement": 15}

====

Biological target: rat A1 (rA1) ARs (Rattus norvegicus)
Sequence (P25099 whole entry): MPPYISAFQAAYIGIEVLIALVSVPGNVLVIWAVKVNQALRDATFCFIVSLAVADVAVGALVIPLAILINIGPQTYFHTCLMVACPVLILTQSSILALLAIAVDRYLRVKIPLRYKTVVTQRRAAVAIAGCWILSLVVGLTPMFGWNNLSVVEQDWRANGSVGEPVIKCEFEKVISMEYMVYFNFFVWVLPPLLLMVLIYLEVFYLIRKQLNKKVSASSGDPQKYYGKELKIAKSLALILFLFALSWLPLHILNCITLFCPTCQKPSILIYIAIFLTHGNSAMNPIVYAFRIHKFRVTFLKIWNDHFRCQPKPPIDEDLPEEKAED
pKi: −log10 of the molar value.
pKi by entry:

{"compound": "CC(C)Cn1c(NCCc2ccc(O)c(O)c2)nc2c1c(=O)n(C)c(=O)n2C [Compound 11f]", "comparison-sign": "=", "pKi": 5.95}
{"compound": "CCn1c(NCCc2ccc(O)c(O)c2)nc2c1c(=O)n(C)c(=O)n2C [Compound 11b]", "comparison-sign": "=", "pKi": 6.32}
{"compound": "Cn1c(=O)c2c(nc3n2CCCN3CCc2ccc(O)c(O)c2)n(C)c1=O [Compound 20a]", "comparison-sign": "≤", "pKi": 5.00}
{"compound": "CCC(C)n1c(NCCc2ccc(O)c(O)c2)nc2c1c(=O)n(C)c(=O)n2C (stereo not shown) [Compound 11g]", "comparison-sign": "=", "pKi": 5.93}
{"compound": "CCCCn1c(NCCc2ccc(O)c(O)c2)nc2c1c(=O)n(C)c(=O)n2C [Compound 11e]", "comparison-sign": "=", "pKi": 6.52}
{"compound": "CCCCCn1c(NCCc2ccc(O)c(O)c2)nc2c1c(=O)n(C)c(=O)n2C [Compound 11h]", "comparison-sign": "=", "pKi": 6.72}
{"compound": "CC(C)n1c(NCCc2ccc(O)c(O)c2)nc2c1c(=O)n(C)c(=O)n2C [Compound 11d]", "comparison-sign": "=", "pKi": 6.07}
{"compound": "CCCCCCn1c(NCCc2ccc(O)c(O)c2)nc2c1c(=O)n(C)c(=O)n2C [Compound 11i]", "comparison-sign": "<", "pKi": 5.00}
{"compound": "Cn1c(=O)c2c(nc(NCCc3ccc(O)c(O)c3)n2CCOc2ccccc2)n(C)c1=O [Compound 11l]", "comparison-sign": "=", "pKi": 6.91}
{"compound": "CCCn1c(NCCc2ccc(O)c(O)c2)nc2c1c(=O)n(C)c(=O)n2C [Compound 11c]", "comparison-sign": "=", "pKi": 6.14}
{"compound": "Cn1c(=O)c2c(nc(NCCc3ccc(O)c(O)c3)n2CCc2ccccc2)n(C)c1=O [Compound 11k]", "comparison-sign": "≤", "pKi": 5.00}
{"compound": "Cn1c(=O)c2c(nc(NCCc3ccc(O)c(O)c3)n2C)n(C)c1=O [Compound 11a]", "comparison-sign": "=", "pKi": 5.70}
{"compound": "Cn1c(=O)c2c(nc3n2CCCCN3CCc2ccc(O)c(O)c2)n(C)c1=O [Compound 20b]", "comparison-sign": "=", "pKi": 5.98}
{"compound": "CCCCn1c(=O)c2c(nc(NCCc3ccc(O)c(O)c3)n2CCC)n(CCCC)c1=O", "comparison-sign": "=", "pKi": 7.00}
{"compound": "Cn1c(=O)c2c(nc(NCCc3ccc(O)c(O)c3)n2Cc2ccccc2)n(C)c1=O [Compound 11j]", "comparison-sign": "=", "pKi": 6.34}
{"compound": "CCCCn1c(=O)c2c(nc3n2CCCN3CCc2ccc(O)c(O)c2)n(CCCC)c1=O", "comparison-sign": "=", "pKi": 7.28}

====

Molecular target: rat D1 receptor (Rattus norvegicus)
Assay: Radioligand binding [3H]SCH23390, rat brain tissue
Conditions: native rat D1 receptor; read-out: rD1 [3H]SCH23390 Ki ± SEM
pKi: −log10 of the molar value.
The following compounds are listed with their measured pKi values.

{"compound": "CCCn1c(=O)c2c(nc3n2CCCN3CCc2ccc(O)c(O)c2)n(CCC)c1=O", "pKi": "< 6.00"}
{"compound": "CCCn1c(NCCc2ccc(O)c(O)c2)nc2c1c(=O)n(C)c(=O)n2C [Compound 11c]", "pKi": "< 6.00"}
{"compound": "Cn1c(=O)c2c(nc3n2CCCCN3CCc2ccc(O)c(O)c2)n(C)c1=O [Compound 20b]", "pKi": "< 6.00"}
{"compound": "CCCCCn1c(NCCc2ccc(O)c(O)c2)nc2c1c(=O)n(C)c(=O)n2C [Compound 11h]", "pKi": "< 6.00"}
{"compound": "Cn1c(=O)c2c(nc(NCCc3ccc(O)c(O)c3)n2C)n(C)c1=O [Compound 11a]", "pKi": "< 6.00"}
{"compound": "CCC(C)n1c(NCCc2ccc(O)c(O)c2)nc2c1c(=O)n(C)c(=O)n2C (stereo not drawn) [Compound 11g]", "pKi": "< 6.00"}

====

Biological target: human PDE4B1 (Homo sapiens)
Sequence (Q07343 whole entry): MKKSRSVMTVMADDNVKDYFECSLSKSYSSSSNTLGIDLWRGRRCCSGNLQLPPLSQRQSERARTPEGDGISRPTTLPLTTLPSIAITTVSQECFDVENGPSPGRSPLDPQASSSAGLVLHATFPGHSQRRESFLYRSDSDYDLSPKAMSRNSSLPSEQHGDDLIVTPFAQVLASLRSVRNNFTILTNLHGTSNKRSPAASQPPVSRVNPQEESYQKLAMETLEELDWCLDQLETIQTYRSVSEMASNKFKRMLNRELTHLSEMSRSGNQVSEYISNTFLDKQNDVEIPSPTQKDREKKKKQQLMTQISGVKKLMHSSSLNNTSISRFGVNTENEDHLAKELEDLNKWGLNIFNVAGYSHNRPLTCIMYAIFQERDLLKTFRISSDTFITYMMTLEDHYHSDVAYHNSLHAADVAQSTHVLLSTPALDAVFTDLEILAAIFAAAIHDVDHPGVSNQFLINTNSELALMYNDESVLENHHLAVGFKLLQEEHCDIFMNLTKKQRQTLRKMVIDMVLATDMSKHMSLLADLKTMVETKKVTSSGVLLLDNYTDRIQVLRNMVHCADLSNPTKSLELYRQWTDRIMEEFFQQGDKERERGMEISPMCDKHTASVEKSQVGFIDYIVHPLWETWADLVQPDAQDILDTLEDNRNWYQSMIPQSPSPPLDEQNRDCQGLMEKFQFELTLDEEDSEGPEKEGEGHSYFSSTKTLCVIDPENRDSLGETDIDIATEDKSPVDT
One threshold, 4 µM, splits the recorded IC50 values: lower ones are Yes, equal or higher ones are No.

{"compound": "Cn1c(=O)c2c(nc3n2CCCN3CCc2ccc(O)c(O)c2)n(C)c1=O [Compound 20a]", "target-or-test-system": "human PDE4B1 (Homo sapiens)", "qualitative-label": "No"}
{"compound": "CCCn1c(=O)c2c(nc3n2CCCN3CCc2ccc(O)c(O)c2)n(CCC)c1=O [Compound 21]", "target-or-test-system": "human PDE4B1 (Homo sapiens)", "qualitative-label": "No"}
{"compound": "CCCCCn1c(NCCc2ccc(O)c(O)c2)nc2c1c(=O)n(C)c(=O)n2C [Compound 11h]", "target-or-test-system": "human PDE4B1 (Homo sapiens)", "qualitative-label": "No"}
{"compound": "Cn1c(=O)c2c(nc(NCCc3ccc(O)c(O)c3)n2CCc2ccccc2)n(C)c1=O [Compound 11k]", "target-or-test-system": "human PDE4B1 (Homo sapiens)", "qualitative-label": "No"}
{"compound": "Cn1c(=O)c2c(nc3n2CCCCN3CCc2ccc(O)c(O)c2)n(C)c1=O [Compound 20b]", "target-or-test-system": "human PDE4B1 (Homo sapiens)", "qualitative-label": "No"}
{"compound": "CC(C)n1c(NCCc2ccc(O)c(O)c2)nc2c1c(=O)n(C)c(=O)n2C [Compound 11d]", "target-or-test-system": "human PDE4B1 (Homo sapiens)", "qualitative-label": "Yes"}
{"compound": "Cn1c(=O)c2c(nc(NCCc3ccc(O)c(O)c3)n2C)n(C)c1=O [Compound 11a]", "target-or-test-system": "human PDE4B1 (Homo sapiens)", "qualitative-label": "No"}
{"compound": "CCCn1c(NCCc2ccc(O)c(O)c2)nc2c1c(=O)n(C)c(=O)n2C [Compound 11c]", "target-or-test-system": "human PDE4B1 (Homo sapiens)", "qualitative-label": "Yes"}
{"compound": "CCC(C)n1c(NCCc2ccc(O)c(O)c2)nc2c1c(=O)n(C)c(=O)n2C (stereo not shown) [Compound 11g]", "target-or-test-system": "human PDE4B1 (Homo sapiens)", "qualitative-label": "No"}
{"compound": "CC(C)Cn1c(NCCc2ccc(O)c(O)c2)nc2c1c(=O)n(C)c(=O)n2C [Compound 11f]", "target-or-test-system": "human PDE4B1 (Homo sapiens)", "qualitative-label": "Yes"}
{"compound": "CCCCn1c(NCCc2ccc(O)c(O)c2)nc2c1c(=O)n(C)c(=O)n2C [Compound 11e]", "target-or-test-system": "human PDE4B1 (Homo sapiens)", "qualitative-label": "Yes"}
{"compound": "Cn1c(=O)c2c(nc(NCCc3ccc(O)c(O)c3)n2Cc2ccccc2)n(C)c1=O [Compound 11j]", "target-or-test-system": "human PDE4B1 (Homo sapiens)", "qualitative-label": "Yes"}
{"compound": "CCn1c(NCCc2ccc(O)c(O)c2)nc2c1c(=O)n(C)c(=O)n2C [Compound 11b]", "target-or-test-system": "human PDE4B1 (Homo sapiens)", "qualitative-label": "Yes"}
{"compound": "Cn1c(=O)c2c(nc(NCCc3ccc(O)c(O)c3)n2CCOc2ccccc2)n(C)c1=O [Compound 11l]", "target-or-test-system": "human PDE4B1 (Homo sapiens)", "qualitative-label": "No"}
{"compound": "CCCCCCn1c(NCCc2ccc(O)c(O)c2)nc2c1c(=O)n(C)c(=O)n2C [Compound 11i]", "target-or-test-system": "human PDE4B1 (Homo sapiens)", "qualitative-label": "No"}
{"compound": "CCCCn1c(=O)c2c(nc(NCCc3ccc(O)c(O)c3)n2CCC)n(CCCC)c1=O [Compound 13]", "target-or-test-system": "human PDE4B1 (Homo sapiens)", "qualitative-label": "No"}
